target: human EP4 receptor (Homo sapiens); experiment: Human EP4 receptor radioligand binding assay (Test 1); design: expressed in transfected cells; host or cells: HEK-293 cell membranes; conditions: [3H]-PGE2 1 nM, transfected HEK-293 cell membranes, read-out: Results of Test 1 (Binding assay, % inh)
assay_readout: inhibition at 10 µM

[[record]]
smiles_entry = "O=C(O)c1cc(Cl)c(NC(=O)c2cc(OCc3ccccc3)ccc2Cl)c(Cl)c1"
reported_measurement = "> 75%"

[[record]]
smiles_entry = "CCCCN(C)c1ccc(Cl)c(C(=O)Nc2c(Cl)cc(C(=O)O)cc2Cl)n1"
reported_measurement = "> 75%"

[[record]]
smiles_entry = "COc1cc(C(=O)O)ccc1NC(=O)c1cc(OCC(C)C)ccc1Cl"
reported_measurement = "> 75%"

[[record]]
smiles_entry = "CC(C)Cc1ccc(Cl)c(C(=O)Nc2c(Cl)cc(C(=O)O)cc2Cl)c1"
reported_measurement = "> 75%"

[[record]]
smiles_entry = "CC(C)Oc1ccc(Cl)c(C(=O)Nc2c(Cl)cc(C(=O)O)cc2Cl)c1"
reported_measurement = "> 75%"

[[record]]
smiles_entry = "Cc1ccc(C(=O)O)cc1NC(=O)c1cc(OCc2ccccc2)ccc1Cl"
reported_measurement = "> 75%"

[[record]]
smiles_entry = "O=C(O)c1cc(Cl)c(NC(=O)c2nc(NC3CCCC3)ccc2Cl)c(Cl)c1"
reported_measurement = "> 75%"

[[record]]
smiles_entry = "CCN(C(=O)c1cc(OCc2ccc(Cl)cc2F)ccc1Cl)c1c(Cl)cc(C(=O)O)cc1Cl"
reported_measurement = "> 75%"

[[record]]
smiles_entry = "Cc1cc(C(=O)O)cc(C)c1NC(=O)c1nc(-c2cccc(Cl)c2)ccc1Cl"
reported_measurement = "> 75%"

[[record]]
smiles_entry = "COCCN(C)c1ccc(Cl)c(C(=O)Nc2c(Cl)cc(C(=O)O)cc2Cl)n1"
reported_measurement = "> 75%"

[[record]]
smiles_entry = "CC(C)COc1ccc(Cl)c(C(=O)Nc2c(Cl)cc(C(=O)O)cc2Cl)c1"
reported_measurement = "> 75%"

[[record]]
smiles_entry = "O=C(O)c1cc(Cl)c(NC(=O)c2nc(NCC3CC3)ccc2Cl)c(Cl)c1"
reported_measurement = "> 75%"

[[record]]
smiles_entry = "Cc1ccc(C(=O)O)cc1NC(=O)c1cc(-c2nccc(C(F)(F)F)n2)ccc1Cl"
reported_measurement = "> 75%"

[[record]]
smiles_entry = "CC(C)COc1ccc(Cl)c(C(=O)N(CC(C)C)c2c(Cl)cc(C(=O)O)cc2Cl)c1"
reported_measurement = "> 75%"

[[record]]
smiles_entry = "Cc1ccc(C(=O)O)cc1NC(=O)c1nc(-c2cccc(Cl)c2)ccc1Cl"
reported_measurement = "> 75%"

[[record]]
smiles_entry = "CCCNc1ccc(Cl)c(C(=O)Nc2c(Cl)cc(C(=O)O)cc2Cl)n1"
reported_measurement = "> 75%"


====

Quick reference: inhibition at 10 µM of the listed items.
molecular target: human EP4 receptor (Homo sapiens); assay: Human EP4 receptor radioligand binding assay (Test 1); set-up: expressed in transfected cells; host or cells: HEK-293 cell membranes; details: [3H]-PGE2 1 nM, transfected HEK-293 cell membranes, read-out: Results of Test 1 (Binding assay, % inh)
assay_readout: inhibition at 10 µM

[[record]]
smiles_entry = "CC(C)COc1ccc(Cl)c(C(=O)Nc2ccc(C(=O)O)cc2Cl)c1"
assay_readout = "inhibition at 10 µM"
reported_measurement = "> 75%"

[[record]]
smiles_entry = "O=C(O)c1cc(Cl)c(NC(=O)c2cc(OCc3ccc(F)cc3F)ccc2Cl)c(Cl)c1"
assay_readout = "inhibition at 10 µM"
reported_measurement = "> 75%"

[[record]]
smiles_entry = "Cc1ccc(CC2CCCCC2)cc1C(=O)Nc1c(Cl)cc(C(=O)O)cc1Cl"
assay_readout = "inhibition at 10 µM"
reported_measurement = "> 75%"

[[record]]
smiles_entry = "O=C(O)c1cc(Cl)c(NC(=O)c2cc(OCc3ccc(Cl)cc3F)ccc2Cl)c(Cl)c1"
assay_readout = "inhibition at 10 µM"
reported_measurement = "> 75%"


====

molecular target: human EP4 receptor (Homo sapiens, UniProt P35408); assay: Measurement of cAMP responses by Homogeneous Time Resolved Fluorescence (Test 2); assay type: cell-based; design: expressed in transfected cells; conditions: at 10 μM; PGE2 1 nM, HEK-293 cells stably expressing human EP4
Sequence (P35408 whole entry): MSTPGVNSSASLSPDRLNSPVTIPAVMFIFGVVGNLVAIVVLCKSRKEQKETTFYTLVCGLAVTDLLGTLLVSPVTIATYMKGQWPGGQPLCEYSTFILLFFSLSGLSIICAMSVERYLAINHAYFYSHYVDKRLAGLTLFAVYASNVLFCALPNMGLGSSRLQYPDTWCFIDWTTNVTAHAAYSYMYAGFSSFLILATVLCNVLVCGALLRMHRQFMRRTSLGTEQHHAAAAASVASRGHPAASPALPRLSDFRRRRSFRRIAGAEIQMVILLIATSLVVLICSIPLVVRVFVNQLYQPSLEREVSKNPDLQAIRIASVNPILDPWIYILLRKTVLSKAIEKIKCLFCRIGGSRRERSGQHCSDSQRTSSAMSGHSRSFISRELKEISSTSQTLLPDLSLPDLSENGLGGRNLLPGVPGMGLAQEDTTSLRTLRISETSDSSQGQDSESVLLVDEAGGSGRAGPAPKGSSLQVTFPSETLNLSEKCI
assay_readout: Results of Test 2 (Functional assay, antagonist % inh)

[[record]]
smiles_entry = "O=C(O)c1cc(Cl)c(NC(=O)c2cc(-c3cccc(Cl)c3)ccc2Cl)c(Cl)c1"
reported_measurement = "$ (% inh >75)"

[[record]]
smiles_entry = "Cc1ccc(-c2cccc(CO)c2)cc1C(=O)Nc1c(C)cc(C(=O)O)cc1C"
reported_measurement = "$ (% inh >75)"

[[record]]
smiles_entry = "Cc1ccc(-c2cccc(C(N)=O)c2)cc1C(=O)Nc1c(C)cc(C(=O)O)cc1C"
reported_measurement = "$ (% inh >75)"

